Assay: Maximum concentration in male CD-1 mice after sc administration of 20 mg/kg
Assay type: ADME, organism-based
Parameters: dose 20 mg/kg, route subcutaneous
Conditions: CD-1, mouse, in vivo
Examples of compounds with documented Cmax follow.
result-type: Cmax (µg/mL)

> print(dat)
                                   compound  result.type  value.measured
1  CO/N=C(\C(=O)N[C@H]1CN2CC(C#N)=C(C(=O)O)N2C1=O)c1csc(N)n1         Cmax              71
2  CO/N=C(\C(=O)NC1CN2CC(S(C)(=O)=O)=C(C(=O)O)N2C1=O)c1csc(N)n1 (configuration not stated)         Cmax            53.8
